test system: DMS-153 human SCLC cell line; assay: In vitro tumor cell growth inhibition, cell count after 3 days; format: cell-based; details: DMS-153 SCLC cells, 3 days, 35° C.; listed as COTI-4 (1B)
QUANTITY_KIND: pIC50
Numbers only, as −log10 of the molar value.

Missing value: pIC50, DMS-153 human SCLC cell line, entry CN1CCN(C(=S)NN=C(c2ccccn2)c2ccccn2)CC1 . Fill in? 6.89

----------
tested on: K562 human Leukemia cell line; experiment: In vitro IC50 against cancer cell lines; format: cell-based; conditions: 72 h, K562 leukemia cells, 3 days, 35° C.
QUANTITY_KIND: pIC50
Give bare numbers, as −log10 of the molar value.

pIC50 lookup needed for CN1CCN(C(=S)NN=C(c2ccccn2)c2ccccn2)CC1 [Formula 1B] , thanks. 7.02

----------
test system: DMS-153 human SCLC cell line; test: In vitro tumor cell growth inhibition, cell count after 3 days; format: cell-based; details: DMS-153 SCLC cells, 3 days, 35° C.; listed as COTI-4M05
QUANTITY_KIND: IC50 (nM)
One number for each entry, in nM.

Query the reported IC50 for DMS-153 human SCLC cell line; item: CN1CCN(C(=S)NN=C(c2ccccn2)c2ccccn2)CC1 [Formula 1B] 130
